# measurement_target: T1, human plasma kallikrein (human, UniProt P03952 20-390; P03952 391-638)
# T1 construct: two disulfide-linked chains; NP_000883.2; also called pKal; hpKal
# T1 sequence (P03952 20-390 limits assumed, chain 1 of 2): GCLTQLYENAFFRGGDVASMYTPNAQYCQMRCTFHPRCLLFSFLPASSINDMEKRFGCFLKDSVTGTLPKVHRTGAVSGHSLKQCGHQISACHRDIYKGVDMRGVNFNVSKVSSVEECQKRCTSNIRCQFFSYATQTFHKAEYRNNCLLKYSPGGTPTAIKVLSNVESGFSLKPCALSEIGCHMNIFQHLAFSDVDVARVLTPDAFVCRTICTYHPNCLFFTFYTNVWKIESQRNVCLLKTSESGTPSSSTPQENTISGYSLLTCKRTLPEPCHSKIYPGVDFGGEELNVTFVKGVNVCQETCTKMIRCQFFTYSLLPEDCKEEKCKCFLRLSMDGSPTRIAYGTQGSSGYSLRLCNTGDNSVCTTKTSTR
# T1 sequence (P03952 391-638 limits assumed, chain 2 of 2): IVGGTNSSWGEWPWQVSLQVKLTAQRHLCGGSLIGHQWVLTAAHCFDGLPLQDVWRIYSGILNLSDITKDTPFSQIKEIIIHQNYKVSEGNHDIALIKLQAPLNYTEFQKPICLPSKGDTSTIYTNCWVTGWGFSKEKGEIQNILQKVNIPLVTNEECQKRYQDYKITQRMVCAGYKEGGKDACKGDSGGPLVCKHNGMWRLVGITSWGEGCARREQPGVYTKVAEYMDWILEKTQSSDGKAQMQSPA
# protocol: ELISA, biotinylated pKal signal over streptavidin background
# cutoff 3 applies to ELISA (T/B); >= gives True, < gives False

binder	qualitative_label
M8-C04 (Fab, V domains shown) VH: EVQLLESGGGLVQPGGSLRLSCAASGFTFSYYPMQWVRQAPGKGLEWVSYIYPSGGLTSYADSVKGRFTISRDNSKNTLYLQMNSLRAEDTAVYYCARLFYGSGSVGFEYWGQGTLVTVSS VL: QSALTQPPSVSVSPGQTASITCSGDKLGDKYTSWHQQKPGQSPVLVIYQDSKRPSGIPERFSGSNSGNTATLTISGTQAMDEADYYCQAWDSSTVFGGGTRLTVL	True
M11-E06 (Fab, V domains shown) VH: EVQLLESGGGLVQPGGSLRLSCAASGFTFSQYAMHWVRQAPGKGLEWVSSIYPSGGFTLYADSVKGRFTISRDNSKNTLYLQMNSLRAEDTAMYYCARGGWLAGGELLNWGQGTLVTVSS VL: DIQMTQSPSSLSASIGDRVTISCRASRGIGTYLNWYQQHAGKAPKLLIRAASSLETGVPPRFSGSGSGTDFTLTISSLQSDDFATYYCQESFTNVYNFGQGTKLEIK	True
M27-A10 (Fab, V domains shown) VH: EVQLLESGGGLVQPGGSLRLSCAASGFTFSWYRMDWVRQAPGKGLEWVSSIWPSGGLTSYADSVKGRFTISRDNSKNTLYLQMNSLRAEDTAVYYCARGWAPGGDAFDIWGQGTMVTVSS VL: DIQMTQSPSSLSASVGDRVTITCRASQSISAYLNWYQQKPGKAPQLLMYGVGSLQSGVPSRFSGSGSGTDFTLTISSLQPEDFATYFCQQGYTTPVTFGGGTKVEIK	True
M9-E04 (Fab, V domains shown) VH: EVQLLESGGGLVQPGGSLRLSCAASGFTFSEYDMMWVRQAPGKGLEWVSSIGSSGGMTYYADSVKGRFTISRDNSKNTLYLQMNSLRAEDTAVYYCARDQVAAAAIDYWGQGTLVTVSS VL: DIQMIQSPSSLSASVGDRVTITCRASQSISGYLNWYQQRSGKAPKLLIFAASNLQTGVPSRFSGSGSGTDFTLTINNLQPEDFATYYCQQSHTPPKTFGPGTKVDIK	True

Please examine the following record next.
[in] Answer whether ELISA (T/B) of M28-C03 (Fab, V domains shown) VH: EVQLLESGGGLVQPGGSLRLSCAASGFTFSYYQMGWVRQAPGKGLEWVSSIYPSGGMTDYADSVKGRFTISRDNSKNTLYLQMNSLRAEDTAVYYCTRGSPWGDDAFDIWGQGTMVTVSS VL: DIQMTQSPSSLSASVGDRVTITCRASQSINFYLNWYQQKPGKAPKLLIYVASSLESGVPSRFSGSASGTEFTLTISSLQPEDFATYYCLQSYSAPYTFGQGTKVEIT is greater than or equal to 3.
[out] False
